Test system: A498 renal
experimental_details: NCI-60 one-dose screen, 48 h
test_parameters: 10 µM unless noted
The panel holds about 83,000 compounds, 20% with a hit somewhere; the sample as a whole holds those more often. The source made the active and inactive calls. Rule for the calls: active = growth percent below 10; inactive = the rest.
Choose one outcome from this list and give only that: active, inactive

Dear all, I need the recorded test outcome for `C=C1C(=O)O[C@H]2[C@H]1CC/C(COC(=O)/C=C\C(=O)NCc1ccc(Cn3c(=O)sn(-c4ccc(Cl)cc4)c3=O)cc1)=C\CC[C@@]1(C)O[C@@H]21` , thank you.
active

Dear all, I need the recorded test outcome for `O=C(c1ccccc1)c1ccc(Cl)c([N+](=O)[O-])c1` , thank you.
inactive

Dear all, I need the recorded test outcome for `CC(C)c1ccc(C(=O)OC(=O)c2ccc(C(C)C)cc2)cc1` , thank you.
inactive

Others:
Dear all, I need the recorded test outcome for `Cc1ccc(NC(=O)C(Cl)Cl)cc1` , thank you.
inactive

Dear all, I need the recorded test outcome for `Cc1c(C(N)=O)sc2nc(C)n(/N=c3\scc(-c4ccccc4)n3Cc3ccccc3)c(=O)c12` , thank you.
active

Dear all, I need the recorded test outcome for `CN(C)c1ccc(/C=C2\C=C(c3ccccc3)N(CCc3ccccc3)C2=O)cc1` , thank you.
inactive

Dear all, I need the recorded test outcome for `CCOC(=O)C(=CNc1ccccc1[N+](=O)[O-])C(=O)OCC` , thank you.
inactive

Dear all, I need the recorded test outcome for CC1=NN(c2cccc(Cl)c2)C(=O)/C1=C\c1cn(CC(O)CN2CCCCC2)c2ccccc12 (stereo unspecified) , thank you.
inactive

Dear all, I need the recorded test outcome for `C#CC[C@H](N)C(=O)O` , thank you.
inactive
